# System: diet-induced obese mice
# experiment-description: Feeding study in diet-induced obese mice (food intake, body weight)
# Format: in vivo
result-type: extension of serum half-life by PEGylation

Ac-C2FRVDEEFQSPFASQSRGYFLFRPRN-CONH2 [NMU9] ({Ac-C(PEG 40 kDa)}-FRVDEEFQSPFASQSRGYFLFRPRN-NH2) [C2 = Cys(PEG)240 kDa from Nektar (mPEG2-MAL-40 k)] : three days
P1-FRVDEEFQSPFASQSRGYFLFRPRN-CONH2 ({branched PEG 40 kDa}-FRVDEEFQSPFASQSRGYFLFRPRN-NH2) [NMU1, P1 = (PEG)240 kDa; branched PEG of 40 kDa linked at N-terminus of native human NMU] : three days
Ac-C2FQSPFASQSRGYFLFRPRN-CONH2 ({Ac-C(PEG 40 kDa)}-FQSPFASQSRGYFLFRPRN-NH2; not fully specified; printed as Ac-C2FQSPFASQSRGYFLFRPRN-CONH2) [NMU20, C2 = Cys(PEG)240 kDa] : three days

Where do the numbers come from? From patent US20100075907A1.
